- Assay Remarks: Plasma pharmacokinetics and brain uptake of antrafenine in mice (LC-MS)
- Type: in vivo, male C57BL/6 mice
- Condition Details: male, C57BL/6, mouse, plasma; IV administration at 1mg/kg; read-out: Plasma VSS
Readout Label: Vd (L/kg)
Quick reminder: number only, in L/kg, skip the unit.

Please give the measured Vd for this molecule: O=C(OCCN1CCN(c2cccc(C(F)(F)F)c2)CC1)c1ccccc1Nc1ccnc2cc(C(F)(F)F)ccc12
2.3

* * *

- Assay Remarks: Plasma pharmacokinetics and brain uptake of antrafenine in mice (LC-MS)
- Format: in vivo, male C57BL/6 mice
- Condition Details: male, C57BL/6, mouse, plasma, iv, 1 mg/kg, IV 1 mg/kg, 4 h, individual mice; read-out: Plasma Concentration Individual
Readout Label: concentration at 4 h

Can you share its concentration at 4 h? I mean this molecule: O=C(OCCN1CCN(c2cccc(C(F)(F)F)c2)CC1)c1ccccc1Nc1ccnc2cc(C(F)(F)F)ccc12
12.5 nM

Values were extracted from paper PMC12682947.
